Cited source for all entries: patent US20230073274A1

Measured MAC (µg/mL); inhibition of MAC formation by item
molecular target: human properdin (human, UniProt P27918 28-469); assay: cell-based or functional assay
Sequence (P27918 28-469 limits assumed): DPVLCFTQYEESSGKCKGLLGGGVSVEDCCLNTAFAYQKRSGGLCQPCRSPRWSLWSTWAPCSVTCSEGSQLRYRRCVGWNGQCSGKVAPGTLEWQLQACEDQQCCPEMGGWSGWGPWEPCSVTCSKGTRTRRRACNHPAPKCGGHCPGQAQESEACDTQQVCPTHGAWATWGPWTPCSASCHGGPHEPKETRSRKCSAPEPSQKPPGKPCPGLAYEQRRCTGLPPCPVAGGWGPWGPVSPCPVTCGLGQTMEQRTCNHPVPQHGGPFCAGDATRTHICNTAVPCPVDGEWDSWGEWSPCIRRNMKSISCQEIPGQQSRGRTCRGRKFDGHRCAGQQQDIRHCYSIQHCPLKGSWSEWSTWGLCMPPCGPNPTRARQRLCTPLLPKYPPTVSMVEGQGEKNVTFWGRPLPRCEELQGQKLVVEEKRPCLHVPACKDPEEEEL
Reply numerically in µg/mL, unit not repeated.

Known results for binders:
NMT28-101 (antibody, V domains shown) VH: EVQLVQSGAEVKKPGASVKVSCKASGYIFTNYPIHWVRQAPGQGLEWMGFIDPGGGYDEPDERFRDRVTMTADTSTSTAYMELSSLRSEDTAVYYCARRGGGYYLDYWGQGTLVTVSS VL: DIQMTQSPSSLSASVGDRVTITCRASQDISFFLNWYQQKPGKAPKLLIYYTSRYHSGVPSRFSGSGSGTDFTLTISSLQPEDFATYYCQHGQTLPWTFGQGTKVEIK
3
NMT18-101 (antibody, V domains shown) VH: EVQLVQSGAEVKKPGASVKVSCKASGYIFTNYPIHWVRQAPGQGLEWMGFIDPGGGYDEPDERFRDRVTMTADTSTSTAYMELSSLRSEDTAVYYCARRGGGYYLDYWGQGTTVTVSS VL: DIQMTQSPSSLSASVGDRVTITCRASQDISFFLNWYQQKPGKAPKLLIYYTSRYHSGVPSRFSGSGSGTDFTLTISSLQPEDFATYYCQHGQTLPWTFGQGTKLEIK
3
NMT17-100 (antibody, V domains shown) VH: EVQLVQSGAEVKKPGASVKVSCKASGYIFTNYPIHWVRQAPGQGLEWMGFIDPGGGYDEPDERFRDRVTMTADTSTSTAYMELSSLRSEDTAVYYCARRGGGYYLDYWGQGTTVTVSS VL: DIQMTQSPSSLSASVGDRVTITCRASQDISFFLNWYQQKPGKAPKLLIYYTSRYHSGVPSRFSGSGSGTDFTLTISSLQPEDFATYYCQHGSTLPWTFGQGTKLEIK
1

Okay, now this binder:
Inquiry: Reported MAC (µg/mL); inhibition of MAC formation for NMT18-100 (antibody, V domains shown) VH: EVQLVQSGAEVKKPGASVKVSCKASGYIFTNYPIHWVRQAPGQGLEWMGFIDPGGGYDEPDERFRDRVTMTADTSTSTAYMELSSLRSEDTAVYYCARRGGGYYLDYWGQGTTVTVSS VL: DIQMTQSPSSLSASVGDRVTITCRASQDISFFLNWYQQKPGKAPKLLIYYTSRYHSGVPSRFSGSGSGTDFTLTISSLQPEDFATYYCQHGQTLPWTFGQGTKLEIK : what is it?
Reply text: 1
